ASSAY_DETAILS: Cytotoxicity (CC50) in MT4 cells, mock-infected
Type: cell-based
TEST_CONDITIONS: human, mock-infected (uninfected)
# label = Yes if CC50 at 5 days < 20 µM else No

# count of solved cases: 8
{"COMPOUND": "CN1C(=O)c2c(O)c(=O)c(C(=O)NCc3c(F)cc(F)cc3F)cn2[C@@H]2CCO[C@@H]21", "CATEGORY": "Yes"}
{"COMPOUND": "CN1C(=O)c2c(O)c(=O)c(C(=O)NCc3c(F)cc(F)cc3F)cn2[C@@H]2COC[C@@H]21", "CATEGORY": "Yes"}
{"COMPOUND": "CN1C(=O)c2c(O)c(=O)c(C(=O)NCc3ccc(F)c(Cl)c3F)cn2[C@@H]2CCOC[C@H]21", "CATEGORY": "Yes"}
{"COMPOUND": "CN1C(=O)c2c(O)c(=O)c(C(=O)NCc3c(F)cc(F)cc3F)cn2[C@H]2CCCC[C@@H]21", "CATEGORY": "Yes"}
{"COMPOUND": "CCN1C(=O)c2c(O)c(=O)c(C(=O)NCc3c(F)cc(F)cc3F)cn2[C@H]2CCOC[C@H]21", "CATEGORY": "No"}
{"COMPOUND": "CN1C(=O)c2c(O)c(=O)c(C(=O)NCc3c(F)cc(F)cc3F)cn2[C@@H]2CCCC[C@@H]21", "CATEGORY": "Yes"}
{"COMPOUND": "CN1C(=O)c2c(O)c(=O)c(C(=O)NCc3c(F)cc(F)cc3F)cn2[C@@H]2CCOC[C@H]21", "CATEGORY": "No"}
{"COMPOUND": "CN1C(=O)c2c(O)c(=O)c(C(=O)NCc3c(F)cc(F)cc3F)cn2[C@H]2COCC[C@]21C(F)F", "CATEGORY": "Yes"}

Data request: A record lists CN1C(=O)c2c(O)c(=O)c(C(=O)NCc3c(F)cc(F)cc3F)cn2[C@@H]2COC[C@H]21 . Is its CC50 at 5 days below 20 µM?
Data returned: No

Data request: Find out if reported CC50 at 5 days for CCN1C(=O)c2c(O)c(=O)c(C(=O)NCc3c(F)cc(F)cc3F)cn2[C@H]2CCC(=O)C[C@H]21 [Compound 40a] is less than 20 µM
Data returned: No

Data request: Find out if reported CC50 at 5 days for O=C(NCc1c(F)cc(F)cc1F)c1cn2c(c(O)c1=O)C(=O)N[C@@H]1CCCC[C@@H]12 is less than 20 µM
Data returned: Yes

Data request: Threshold test, CC50 at 5 days < 20 µM: O=C(NCc1c(F)cc(F)cc1F)c1cn2c(c(O)c1=O)C(=O)N(CC(F)(F)F)[C@@H]1COCC[C@H]12
Data returned: Yes

Data request: Could you please tell me whether CC50 at 5 days recorded for CCN1C(=O)c2c(O)c(=O)c(C(=O)NCc3cccc(F)c3F)cn2[C@H]2CCOC[C@H]21 is less than 20 µM?
Data returned: No

Data request: State whether 20 µM exceeds CC50 at 5 days recorded for CN1C(=O)c2c(O)c(=O)c(C(=O)NCc3ccc(F)c(Cl)c3F)cn2[C@H]2CCOC[C@H]21 .
Data returned: Yes
